Assay Procedure: VP16 transactivation inhibitors, counter-screen for SRC1 inhibitor project, cell-based, luminescence, high throughput (AID 588824)
Condition Context: cell-based VP16 transactivation luciferase luminescence; at 3.6 µM
Calls of active or inactive are those of the source. Rule as the data show it: active = inhibition above about 25%; inactive = the rest.
// allowed return values: active, inactive

Hi, sorry to bother you, what did the test record for CC(C)C(=O)NC(c1ccc(Cl)cc1Cl)c1ccc2cccnc2c1O (centres undefined) ? inactive

Hi, sorry to bother you, what did the test record for C=CCN(CC=C)c1ncnc2[nH]ncc12 ? active

Hi, sorry to bother you, what did the test record for COc1cc(S(=O)(=O)NCc2ccccc2Cl)ccc1-n1cnnn1 ? inactive

Hi, sorry to bother you, what did the test record for CN(Cc1cnc2nc(N)nc(N)c2n1)c1ccc(C(=O)NC(CCC(=O)O)C(=O)O)c2ccccc12 (centres undefined) ? inactive

---

System Under Test: Nuclear receptor coactivator 2 (Homo sapiens) (UniProt Q15596)
Sequence (Q15596 whole entry, looked up): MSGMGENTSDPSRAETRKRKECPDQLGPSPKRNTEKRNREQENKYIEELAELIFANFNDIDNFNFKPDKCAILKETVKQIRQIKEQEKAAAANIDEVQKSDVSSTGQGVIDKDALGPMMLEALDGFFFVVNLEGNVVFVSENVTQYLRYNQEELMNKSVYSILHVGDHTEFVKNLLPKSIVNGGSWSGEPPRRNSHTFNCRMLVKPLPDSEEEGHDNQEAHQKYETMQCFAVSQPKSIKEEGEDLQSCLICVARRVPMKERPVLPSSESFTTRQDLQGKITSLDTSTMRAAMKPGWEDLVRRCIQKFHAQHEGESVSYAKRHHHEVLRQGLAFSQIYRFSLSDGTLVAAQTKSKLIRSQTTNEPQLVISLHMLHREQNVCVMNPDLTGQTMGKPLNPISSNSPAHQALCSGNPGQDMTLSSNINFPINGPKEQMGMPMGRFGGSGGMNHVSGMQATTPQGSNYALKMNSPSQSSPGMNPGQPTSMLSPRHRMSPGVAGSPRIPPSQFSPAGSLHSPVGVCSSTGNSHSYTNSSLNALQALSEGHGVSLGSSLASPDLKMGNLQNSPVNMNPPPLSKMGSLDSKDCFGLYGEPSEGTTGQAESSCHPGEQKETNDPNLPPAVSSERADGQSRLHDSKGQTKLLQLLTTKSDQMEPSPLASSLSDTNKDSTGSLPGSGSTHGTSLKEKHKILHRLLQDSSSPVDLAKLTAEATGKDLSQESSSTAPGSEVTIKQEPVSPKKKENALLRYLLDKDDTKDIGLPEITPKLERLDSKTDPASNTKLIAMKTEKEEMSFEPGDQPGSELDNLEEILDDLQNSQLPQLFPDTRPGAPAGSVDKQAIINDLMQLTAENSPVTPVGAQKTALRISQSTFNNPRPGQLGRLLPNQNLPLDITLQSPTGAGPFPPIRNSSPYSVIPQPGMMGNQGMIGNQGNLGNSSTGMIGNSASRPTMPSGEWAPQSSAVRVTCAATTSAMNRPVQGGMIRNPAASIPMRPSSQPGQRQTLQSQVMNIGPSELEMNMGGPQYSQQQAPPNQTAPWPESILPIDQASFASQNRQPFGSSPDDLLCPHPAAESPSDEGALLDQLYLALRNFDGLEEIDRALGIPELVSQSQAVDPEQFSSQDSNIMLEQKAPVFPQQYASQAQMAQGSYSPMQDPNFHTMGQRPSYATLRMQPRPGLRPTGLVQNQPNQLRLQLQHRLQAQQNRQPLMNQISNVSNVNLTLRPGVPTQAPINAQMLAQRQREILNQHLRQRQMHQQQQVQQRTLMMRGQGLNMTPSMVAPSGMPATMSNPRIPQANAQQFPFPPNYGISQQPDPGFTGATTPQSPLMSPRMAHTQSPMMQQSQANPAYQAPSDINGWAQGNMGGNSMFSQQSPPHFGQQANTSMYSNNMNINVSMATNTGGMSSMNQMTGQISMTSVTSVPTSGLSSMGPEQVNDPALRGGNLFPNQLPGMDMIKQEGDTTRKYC
Assay Procedure: SRC2 coactivator transcriptional activity inhibitors, confirmation, cell-based, luminescence, HEK293, triplicate (AID 652008);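 also: 0% = DMSO-treated cells and 100% = Gossypol at 36 µM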
Condition Context: HEK293 GAL4-SRC2 luciferase reporter, at 8.9 µM
Activity calls are given as the source filed them.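 Rule for the calls: active = mean inhibition above 46.5%, the solvent-only control mean plus 3 SD; inactive = the rest.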
// allowed return values: active, inactive

Hi, sorry to bother you, what did the test record for CS(=O)(=O)Nc1cccc(NC(=O)C2Cc3c(-c4cccc(F)c4)ccnc3O2)c1 (centres undefined) ? inactive

Hi, sorry to bother you, what did the test record for CC1(C)N=C(N)N=C(N)N1c1ccc(CCCCc2ccccc2)cc1 ? inactive

Hi, sorry to bother you, what did the test record for N#Cc1c(N)nc2c(c1N)CC(C(F)(F)F)O2 (centres undefined) ? inactive

Hi, sorry to bother you, what did the test record for O=C1CCCC/C1=C/Nc1ccc2c(c1)OCO2 ? inactive

Hi, sorry to bother you, what did the test record for O=C(c1cc2sccc2n1Cc1ccc(F)cc1)N1CCN(c2nc3ccccc3s2)CC1 ? inactive

Hi, sorry to bother you, what did the test record for Clc1ccccc1/C=C/c1nc(-c2ccccn2)no1 ? inactive

Hi, sorry to bother you, what did the test record for O=C(OCCC12CC3CC(CC(C3)C1)C2)c1ccc(NCc2cc(O)ccc2O)cc1 ? active

Hi, sorry to bother you, what did the test record for COc1ccc(-c2cc(=O)oc3cc(OC(=O)C4CCCCC4)c(Cl)cc23)cc1 ? inactive

Hi, sorry to bother you, what did the test record for Cc1c(CCC(=O)N[C@@H](C)C(=O)O)c(=O)oc2cc3oc4c(c3cc12)CCCC4 ? active

Hi, sorry to bother you, what did the test record for CN1CCN(c2ccc(NC(=O)N3CCc4ccccc43)cc2)CC1 ? active

Hi, sorry to bother you, what did the test record for CCOC(=O)C1CCCCN1C(=O)CCc1c(C)nc2cc(-c3ccccc3)nn2c1C (centres undefined) ? active

Hi, sorry to bother you, what did the test record for O=C(N/N=C/c1ccc(O)cc1)c1[nH]c2ccc(Br)cc2c1-c1ccccc1 ? inactive

Hi, sorry to bother you, what did the test record for CN1CCN(c2nc3ccccc3nc2C(C#N)S(=O)(=O)c2ccccc2)CC1 (centres undefined) ? inactive

Hi, sorry to bother you, what did the test record for Cn1nnnc1Sc1ncnc2scc(-c3ccc4c(c3)OCO4)c12 ? inactive

Hi, sorry to bother you, what did the test record for CC1CCCN(c2ncnc3c2cnn3-c2ccc(Cl)cc2)C1 (centres undefined) ? active

Hi, sorry to bother you, what did the test record for C=C1C(=O)O[C@@H]2C[C@@H](C)[C@@H]3C=CC(=O)[C@@]3(C)[C@@H](OC(C)=O)[C@H]12 ? active

Hi, sorry to bother you, what did the test record for Clc1cccc(-c2nc(-c3ccccn3)no2)c1 ? inactive

Hi, sorry to bother you, what did the test record for CC(OC(=O)C1=COCCO1)C(=O)Nc1ccc(Cl)cn1 (centres undefined) ? inactive

Hi, sorry to bother you, what did the test record for O=C(O)COc1ccccc1/C=N/NC(=O)Cc1csc(Nc2cccc(C(F)(F)F)c2)n1 ? inactive

Hi, sorry to bother you, what did the test record for COc1ccc(C(NC(=O)C2CCN(CCCOc3ccccc3)CC2)c2cccs2)cc1 (centres undefined) ? inactive

Hi, sorry to bother you, what did the test record for COc1ccc2cc3cc(C(=O)Nc4ccc5c(c4)OCO5)oc3nc2c1 ? inactive

Hi, sorry to bother you, what did the test record for O=C(O)C1(Nc2ccc(Br)cc2)CCCC1 ? inactive

Hi, sorry to bother you, what did the test record for Cc1ccc(NC(=O)C2=C(c3ccccc3)S(=O)(=O)CCS2(=O)=O)cc1 ? active

Hi, sorry to bother you, what did the test record for Cc1cccc(C)c1NC(=O)C[n+]1cc(-c2ccccc2)n2c1CCC2 ? inactive

Hi, sorry to bother you, what did the test record for Cc1cc(C(=O)CN2C(=O)c3ccccc3S2(=O)=O)c(C)n1C(C)C ? active

Hi, sorry to bother you, what did the test record for COc1cc2ncnc(NCc3ccc4c(c3)OCO4)c2cc1OC ? inactive

Hi, sorry to bother you, what did the test record for CCS(=O)(=O)c1ncc(Cl)c(C(=O)Nc2ccc(S(=O)(=O)N3CCC(C)CC3)cc2)n1 ? active

Hi, sorry to bother you, what did the test record for C=Cc1ccc(CC2(C)C(=O)Nc3ccc(-c4cccnc4)cc32)cc1 (centres undefined) ? inactive

Hi, sorry to bother you, what did the test record for Cc1ccc(C(=O)O/N=C(\N)c2ccccn2)cc1 ? inactive

Hi, sorry to bother you, what did the test record for CC(=O)C1C(=O)c2c(cccc2[N+](=O)[O-])C1=Nc1cccc(Cl)c1 (centres undefined) ? inactive

Hi, sorry to bother you, what did the test record for C/C(=N\Nc1ncnc2sc(C)c(C)c12)c1ccccn1 ? inactive

Hi, sorry to bother you, what did the test record for O=C(NC12CC3CC(CC(C3)C1)C2)C1CC(=O)N(c2ccccc2)C1 (centres undefined) ? inactive

Hi, sorry to bother you, what did the test record for OCC1OC(n2ccc3c(NO)ncnc32)C(O)C1O (centres undefined) ? active

Hi, sorry to bother you, what did the test record for CC(C)(C)C(=O)Nc1ccc(-c2cc3cc(Cl)ccc3o2)cc1 ? inactive

Hi, sorry to bother you, what did the test record for Nc1ccc(OC(=O)Nc2ccc(O)cc2)cc1 ? active

Hi, sorry to bother you, what did the test record for Cc1ccc([N+](=O)[O-])cc1N(CC(=O)Nc1ccc(S(=O)(=O)Nc2cccc(C(F)(F)F)c2)cc1)S(C)(=O)=O ? inactive

Hi, sorry to bother you, what did the test record for O=C1CSC(c2ccc([N+](=O)[O-])cc2)N1c1ccc(O)cc1 (centres undefined) ? inactive

Hi, sorry to bother you, what did the test record for CCOC(=O)C1(Cc2ccc(Cl)cc2)CCN(C(C)Cc2ccc(O)c(OC)c2)CC1 (centres undefined) ? inactive

Hi, sorry to bother you, what did the test record for Cc1ccc(C)c(N2CCN(C(=O)c3ccc4c(c3)c(C)c(C)n4C)CC2)c1 ? inactive

---

I'd appreciate it if you could supply inhibition values for the items below.
Assay Procedure: VP16 transactivation inhibitors, counter-screen for SRC1 inhibitor project, cell-based, luminescence, high throughput (AID 588824)
Condition Context: cell-based VP16 transactivation luciferase luminescence; at 3.6 µM; hits give high values
Hi! Could you send only the number? It should be in %, unit omitted.

Provide only the value of recorded inhibition for Oc1c(C(Nc2nc3ccccc3s2)c2ccco2)ccc2cccnc12 (stereo unspecified) 29.8

Provide only the value of recorded inhibition for O=C(N/N=C/c1ccc(O)cc1)c1ccc(COc2cc(Cl)ccc2Cl)o1 30.3

Provide only the value of recorded inhibition for COc1ccccc1CNC(=O)C(=O)NCCC1CCCCN1S(=O)(=O)c1ccc(C)cc1 (stereo unspecified) 7.29

Provide only the value of recorded inhibition for O=C(Nc1ccccc1)c1ccc(S(=O)(=O)NCc2cccnc2)cc1 0.28

Provide only the value of recorded inhibition for CC(C)(C)c1cc[n+](C2=C([O-])c3ccccc3C(=O)/C2=N\S(=O)(=O)c2cccs2)cc1 7.69

Provide only the value of recorded inhibition for CC(C)(C)C(=O)Nc1ccc(N=Nc2ccccc2)cc1 -23.9

Provide only the value of recorded inhibition for O=C(Nc1ccn(Cc2c(F)c(F)c(F)c(F)c2F)n1)c1ccc(COc2ccccc2Cl)cc1 8.16

Provide only the value of recorded inhibition for CCc1cc(-c2[nH]ncc2-c2ccc3c(c2)OCO3)c(O)cc1O 39.8

Provide only the value of recorded inhibition for COc1ccc(/C=C/C(=O)Nc2ccccc2C(=O)O)cc1OC -29.6

Provide only the value of recorded inhibition for CCOC(=O)N1CCN(Cc2nc(Cc3cccc(C(F)(F)F)c3)no2)CC1 -12.2

Provide only the value of recorded inhibition for COc1ccccc1C(=O)N(Cc1ccc(C)o1)C1CCS(=O)(=O)C1 (stereo unspecified) 3.3

Provide only the value of recorded inhibition for Cc1nc(N/N=C/c2ccc(O)cc2O)cc(N2CCOCC2)n1 -14.6

Provide only the value of recorded inhibition for C[C@@H]1C[C@@H]2O[C@H]2/C=C\C=C\C(=O)Cc2c(Cl)c(O)cc(O)c2C(=O)O1 72

Provide only the value of recorded inhibition for COCCn1c(C)cc(C(=O)CSc2nc3ccccc3s2)c1C 6.14

Provide only the value of recorded inhibition for Cc1ccc(C(=O)Nc2c3c(nn2C(C)(C)C)CS(=O)(=O)C3)cc1[N+](=O)[O-] -9.8

Provide only the value of recorded inhibition for CCOc1ccc(CCNC(=O)COC(=O)c2cc(OC)c(OC)cc2[N+](=O)[O-])cc1OCC -2.67

Provide only the value of recorded inhibition for COc1ccc(-n2c(C)c([N+](=O)[O-])c3ccc(O)c(CN(C)C)c32)cc1 61.4

Provide only the value of recorded inhibition for CC1CC(C)C[N+](=C2C=C(N3CCCC3)CC(C)(C)C2)C1 (stereo unspecified) 71.5

Provide only the value of recorded inhibition for COc1ccc(-c2csc3ncnc(N4CCN(CCO)CC4)c23)cc1 9.88

Provide only the value of recorded inhibition for CCOc1ccc(Nc2ncnc3ccc([N+](=O)[O-])cc23)cc1 53.7

Provide only the value of recorded inhibition for C=CCn1c(C)cc(C(=O)CN2C(=O)c3ccccc3S2(=O)=O)c1C 72.7

Provide only the value of recorded inhibition for CC1(Cc2ccc(Cl)cc2)C(=O)Nc2ccc(-c3cccnc3)cc21 (stereo unspecified) 52.8

Provide only the value of recorded inhibition for Cc1ccc(S(=O)(=O)Nc2ccc3ncccc3c2)cc1 5.01

Provide only the value of recorded inhibition for C/C(=N\NC(=O)c1nnn(-c2nonc2N)c1-c1ccccc1)c1ccccc1O 40.6

Provide only the value of recorded inhibition for CN(C)CCNc1ccc(CO)c2oc3ccc(O)cc3c(=O)c12 33.1

Provide only the value of recorded inhibition for O=[N+]([O-])c1nn(-c2ccc3c(c2)OCCO3)n(O)c1=Nc1ccccc1 16.2

Provide only the value of recorded inhibition for COc1ccc(-c2coc3c(C(=O)Nc4cc(OC)c(OC)c(OC)c4)cccc23)c(C)c1 31.8

Provide only the value of recorded inhibition for Cc1cc(C)cc(NS(=O)(=O)c2ccc3c(c2)c(=O)n(C)c(=O)n3C)c1 38

Provide only the value of recorded inhibition for O=C(CCCN1C(=O)S/C(=C\c2ccccc2)C1=O)NNC(=O)c1ccccc1O 53.3

Provide only the value of recorded inhibition for O=C(Nc1nc(-c2ccc(S(=O)(=O)N3CCCC3)cc2)cs1)C1COc2ccccc2O1 (stereo unspecified) -2.78

Provide only the value of recorded inhibition for N=c1ccn(CC(=O)c2ccc(-c3ccccc3)cc2)cc1 57.5
